Please provide measured Trimeric HA Binding RLU for the entries that follow.
Target: recombinant homotrimeric HA, A/swine/Ontario/01911-2/99 H4N6 (Influenza A virus A/swine/Ontario/01911-2/99 (H4N6))
Assay: trimeric HA microarray, transfection set 5
Details: remark: other sources report otherwise
Answers are plain numbers, in RLU.

# map each binder to its Trimeric HA Binding RLU
1. TCN-555 (5246_L16) (antibody, V domains shown) VH: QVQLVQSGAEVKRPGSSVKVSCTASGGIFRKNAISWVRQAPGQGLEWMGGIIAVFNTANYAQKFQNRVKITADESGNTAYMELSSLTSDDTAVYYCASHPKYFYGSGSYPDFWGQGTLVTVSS VL: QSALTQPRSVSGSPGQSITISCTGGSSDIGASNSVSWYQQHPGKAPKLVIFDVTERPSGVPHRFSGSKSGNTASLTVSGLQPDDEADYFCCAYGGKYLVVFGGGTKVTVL
2. TCN-558 (5248_H10b) (antibody, V domains shown) VH: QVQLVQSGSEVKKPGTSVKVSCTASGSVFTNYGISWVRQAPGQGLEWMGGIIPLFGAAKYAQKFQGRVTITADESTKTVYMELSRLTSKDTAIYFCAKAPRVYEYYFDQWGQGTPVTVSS VL: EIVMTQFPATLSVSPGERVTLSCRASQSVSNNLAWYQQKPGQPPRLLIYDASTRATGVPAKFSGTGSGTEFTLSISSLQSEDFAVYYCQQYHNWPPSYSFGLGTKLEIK
3. TCN-539 (5056_A08) (antibody, V domains shown) VH: QVQLVESGGGVVQPGRSLRLSCAASEITFITYAMHWVRQAPGKGLEWVALISDDGSNKFYADSVKGRFTISRDNSKNTLYLQMNSLRAEDTAAYYCAREGVYFDSGTYRGYFDYWGQETLVTVSS VL: EIVLTQSPATLSLSPGERATLSCRASQSVSSYLAWYQQKPGQAPRLLIYDASNRATGIPARFSGSGSGTDFTLTISSLEPEDFAVYYCQQRSHWPPITFGQGTRLEIK

// result
[4520, 10000, 6510]
